Test system: rat spleen cells
Protocol description: cells
Assay type: cell-based
Cond: 24 h, read-out: Minimum effective concentration (interferon inducing activity)

| Compound | minimal effective concentration |
| --- | --- |
| CCCCOc1nc(N)c2[nH]c(=O)n(CCCCNC(=O)Nc3cccc(CC(=O)O)c3)c2n1 [Comparison Example 11, reference compound] | 0.1 µM |
| CCCCOc1nc(N)c2[nH]c(=O)n(CCCCNC(=O)Nc3cccc(C(=O)O)c3)c2n1 [Comparison Example 10, reference compound] | 0.3 µM |
| CCCCOc1nc(N)c2[nH]c(=O)n(CCOc3cccc(C(=O)O)c3)c2n1 [Comparison Example 1, reference compound] | 0.01 µM |
| CCCCOc1nc(N)c2[nH]c(=O)n(CCOc3ccccc3CC(=O)OC)c2n1 | 0.001 µM |
| CCCCOc1nc(N)c2nc(O)n(CCCCNS(=O)(=O)c3cccc(CC(=O)O)c3)c2n1 [Comparison Example 9, reference compound] | 0.3 µM |
| CCCCOc1nc(N)c2[nH]c(=O)n(CCOc3ccc(CC(=O)OC)cc3)c2n1 | 0.01 µM |
| CCCCOc1nc(N)c2[nH]c(=O)n(CCOc3ccccc3C(=O)O)c2n1 [Comparison Example 3, reference compound] | 0.1 µM |
| CCCCOc1nc(N)c2[nH]c(=O)n(CCCCNS(=O)(=O)c3cccc(CC(=O)OC)c3)c2n1 | 0.003 µM |
| CCCCOc1nc(N)c2[nH]c(=O)n(CCCCNS(=O)(=O)c3cccc(C(=O)OC)c3)c2n1 | 0.003 µM |
| CCCCOc1nc(N)c2[nH]c(=O)n(CCOc3cccc(CC(=O)OC)c3)c2n1 | 0.003 µM |

Entry source: patent US8969362B2
